- protocol text: Inhibition of rat GGTase-1 using geranylgeranyl-pyrophosphate and dansyl-GCVLL as substrate preincubated for 5 mins measured after 15 mins by fluorescence assay
pIC50: −log10 of the molar value.
metric: pIC50

{"columns": ["line notation", "metric", "data value"],
 "data": [
  ["C[C@@H]1C(=O)NCC(=O)N1Cc1ccco1", "pIC50", 5.42],
  ["O=C1NCC(=O)N(Cc2ccc(Br)cc2)[C@H]1Cc1c[nH]c2ccccc12", "pIC50", 6.20],
  ["COc1ccc(CN2C(=O)CNC(=O)[C@H]2Cc2ccccc2)cc1", "pIC50", 6.34],
  ["COc1ccc(CN2C(=O)CNC(=O)[C@@H]2C)cc1", "pIC50", 5.28],
  ["O=C1NCC(=O)N(Cc2ccco2)[C@@H]1Cc1c[nH]cn1", "pIC50", 6.46],
  ["COc1ccc(C[C@H]2C(=O)NCC(=O)N2Cc2ccco2)cc1", "pIC50", 5.98],
  ["COc1ccc(CN2C(=O)CNC(=O)[C@@H]2C(C)C)cc1", "pIC50", 5.42],
  ["COc1ccc(CN2C(=O)CNC(=O)[C@H]2CSCc2ccccc2)cc1", "pIC50", 6.33],
  ["CC(C)[C@H]1C(=O)NCC(=O)N1Cc1ccco1", "pIC50", 5.49],
  ["O=C1NCC(=O)N(Cc2ccco2)[C@@H]1Cc1ccccc1", "pIC50", 6.21],
  ["O=C1NCC(=O)N(Cc2ccc(Oc3cccc(Cl)c3)cc2)[C@H]1Cc1c[nH]c2ccccc12", "pIC50", 7.02]
]}

====

Attribute: log10 IC50
- protocol text: Inhibition of rat GGTase-1 using geranylgeranyl-pyrophosphate and dansyl-GCVLL as substrate preincubated for 5 mins measured after 15 mins by fluorescence assay
metric: log10 IC50 (log10 of the value in µM)

{"columns": ["line notation", "metric", "data value"],
 "data": [
  ["COc1ccc(CN2C(=O)CNC(=O)[C@H]2C(C)C)cc1", "log10 IC50", 0.23],
  ["CC(C)C[C@H]1C(=O)NCC(=O)N1Cc1ccco1", "log10 IC50", 0.59],
  ["COc1ccc(CN2C(=O)CNC(=O)[C@H]2Cc2c[nH]cn2)cc1", "log10 IC50", -0.74],
  ["COc1ccc(CN2C(=O)CNC(=O)[C@@H]2Cc2ccccc2)cc1", "log10 IC50", 0.29],
  ["COc1c(Cl)cc(Cl)cc1CN1C(=O)CNC(=O)[C@@H]1Cc1c[nH]c2ccccc12", "log10 IC50", -0.66],
  ["C[C@H]1C(=O)NCC(=O)N1Cc1ccco1", "log10 IC50", 0.72],
  ["O=C1NCC(=O)N(Cc2ccco2)[C@H]1Cc1c[nH]cn1", "log10 IC50", -0.01]
]}

====

- protocol text: Inhibition of rat FTase using farnesylpyrophosphate and dansyl-GCVLS as substrate preincubated for 5 mins measured after 15 mins by fluorescence assay
pIC50: −log10 of the molar value.
metric: pIC50

{"columns": ["line notation", "metric", "data value"],
 "data": [
  ["COc1ccc(CN2C(=O)CNC(=O)[C@@H]2CSCc2ccccc2)cc1", "pIC50", 7.35],
  ["O=C1NCC(=O)N(Cc2ccc(Cl)cc2)[C@@H]1Cc1c[nH]c2ccccc12", "pIC50", 7.48],
  ["O=C1NCC(=O)N(Cc2ccc(Oc3cccc(Cl)c3)cc2)[C@@H]1Cc1c[nH]c2ccccc12", "pIC50", 7.75],
  ["CC(C)[C@@H]1C(=O)NCC(=O)N1Cc1ccco1", "pIC50", 6.46],
  ["O=C1NCC(=O)N(Cc2ccco2)[C@@H]1Cc1c[nH]cn1", "pIC50", 7.15],
  ["O=C1NCC(=O)N(Cc2ccco2)[C@@H]1Cc1c[nH]c2ccccc12", "pIC50", 7.28],
  ["C[C@H]1C(=O)NCC(=O)N1Cc1ccco1", "pIC50", 5.81],
  ["COc1ccc(CN2C(=O)CNC(=O)[C@@H]2Cc2c[nH]c3ccccc23)cc1", "pIC50", 7.23],
  ["O=C1NCC(=O)N(Cc2ccc(Oc3cccc(Cl)c3)cc2)[C@H]1Cc1c[nH]c2ccccc12", "pIC50", 7.58],
  ["COc1c(Cl)cc(Cl)cc1CN1C(=O)CNC(=O)[C@@H]1Cc1c[nH]c2ccccc12", "pIC50", 7.47],
  ["O=C1NCC(=O)N(Cc2ccc(F)cc2)[C@@H]1Cc1c[nH]c2ccccc12", "pIC50", 7.35],
  ["COc1ccc(CN2C(=O)CNC(=O)[C@@H]2C)cc1", "pIC50", 5.96],
  ["O=C1NCC(=O)N(Cc2ccc(Br)cc2)[C@@H]1Cc1c[nH]c2ccccc12", "pIC50", 7.53],
  ["O=C1NCC(=O)N(Cc2ccco2)[C@H]1CSCc1ccccc1", "pIC50", 7.16],
  ["N#Cc1ccc(CN2C(=O)CNC(=O)[C@H]2Cc2c[nH]c3ccccc23)cc1", "pIC50", 7.41],
  ["C[C@@H]1C(=O)NCC(=O)N1Cc1ccco1", "pIC50", 6.01],
  ["COc1ccc(C[C@H]2C(=O)NCC(=O)N2Cc2ccco2)cc1", "pIC50", 6.63],
  ["CC(C)C[C@@H]1C(=O)NCC(=O)N1Cc1ccco1", "pIC50", 6.38],
  ["CC(C)[C@H]1C(=O)NCC(=O)N1Cc1ccco1", "pIC50", 6.27],
  ["COc1ccc(CN2C(=O)CNC(=O)[C@H]2CCSC)cc1", "pIC50", 6.96],
  ["COc1ccc(CN2C(=O)CNC(=O)[C@H]2Cc2ccccc2)cc1", "pIC50", 6.85],
  ["COc1ccc(CN2C(=O)CNC(=O)[C@H]2Cc2c[nH]cn2)cc1", "pIC50", 7.11],
  ["COc1ccc(CN2C(=O)CNC(=O)[C@@H]2CC(C)C)cc1", "pIC50", 6.24],
  ["O=C1NCC(=O)N(Cc2ccc(N3CCOCC3)cc2)[C@H]1Cc1c[nH]c2ccccc12", "pIC50", 6.65],
  ["COc1ccc(CN2C(=O)CNC(=O)[C@@H]2C(C)C)cc1", "pIC50", 6.11],
  ["O=C1NCC(=O)N(Cc2ccc(F)cc2)[C@H]1Cc1c[nH]c2ccccc12", "pIC50", 7.11],
  ["COc1ccc(CN2C(=O)CNC(=O)[C@@H]2Cc2ccccc2)cc1", "pIC50", 6.74],
  ["COc1ccc(CN2C(=O)CNC(=O)[C@H]2CSCc2ccccc2)cc1", "pIC50", 7.15],
  ["O=C1NCC(=O)N(Cc2ccc(N3CCOCC3)cc2)[C@@H]1Cc1c[nH]c2ccccc12", "pIC50", 6.88],
  ["O=C1NCC(=O)N(Cc2ccco2)[C@H]1Cc1ccccc1", "pIC50", 6.80],
  ["O=C1NCC(=O)N(Cc2ccco2)[C@@H]1CSCc1ccccc1", "pIC50", 7.00]
]}
